Target: human Kv3.1 channels (hKv3.1) (Homo sapiens, UniProt P48547)
Sequence (P48547 1-501 limits assumed): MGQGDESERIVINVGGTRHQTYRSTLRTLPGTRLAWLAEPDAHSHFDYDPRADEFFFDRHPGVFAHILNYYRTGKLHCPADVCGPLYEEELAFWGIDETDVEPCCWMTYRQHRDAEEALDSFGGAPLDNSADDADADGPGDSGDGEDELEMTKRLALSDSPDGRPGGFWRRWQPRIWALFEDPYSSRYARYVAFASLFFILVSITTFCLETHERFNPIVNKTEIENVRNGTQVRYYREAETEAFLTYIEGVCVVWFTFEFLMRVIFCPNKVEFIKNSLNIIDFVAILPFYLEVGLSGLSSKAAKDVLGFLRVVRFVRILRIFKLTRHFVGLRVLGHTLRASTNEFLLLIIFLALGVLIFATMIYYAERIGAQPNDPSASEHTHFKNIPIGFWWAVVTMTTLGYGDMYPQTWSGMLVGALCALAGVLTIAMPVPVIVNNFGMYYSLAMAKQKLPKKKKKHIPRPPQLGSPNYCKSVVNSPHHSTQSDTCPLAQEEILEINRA
Experiment: Measurement of Kv3 channel modulation: Kv3.1 assay (IonWorks Quattro whole-cell electrophysiology)
Format: cell-based
Settings: Table 3, Reference Examples and corresponding Examples; rounded to one decimal place; read-out: Kv3.1 pEC50 (converted)
Experimental: The ability of the compounds of the invention to modulate the voltage-gated potassium channel subtypes Kv3.4/Kv3.3/Kv3.2/Kv3.1 may be determined using the following assay. […] Experiments are conducted at r.t. using IonWorks Quattro™ planar array electrophysiology technology (Molecular Devices Corp.) with PatchPlate™ PPC. […] Planar electrode hole resistances (Rp) are determined by applying a 10 mV voltage step across each well. […]
Metric: EC50 (µM)
Field format: number, assumed µM, no unit text.

Compound: CC1(C)COc2cccc(Oc3ncc(-n4c(=O)[nH]c5cccnc54)cn3)c21
Experimental target: human Kv3.1 channels (hKv3.1) (Homo sapiens, UniProt P48547)
EC50, µM: 0.631

## Task Form field: EC50 recorded for `CC1(C)COc2cccc(Oc3ncc(-n4c(=O)[nH]c5ccncc54)cn3)c21` with human Kv3.1 channels (hKv3.1) (Homo sapiens, UniProt P48547) (enter value)
## Result 7.94

## Task Form field: EC50 recorded for O=c1[nH]c2cnccc2n1-c1ccc(Oc2cccc(OC(F)(F)F)c2)nc1 [RE10, reference compound] with human Kv3.1 channels (hKv3.1) (Homo sapiens, UniProt P48547) (enter value)
## Result 2.51

* * *

Assay: Determination of blood and brain tissue binding (equilibrium dialysis)
Type: in vitro ADME, Sprague Dawley rat
Details: Sprague Dawley, 1:2 (w/v) in artificial CSF; rat brain homogenate, 5 micromolar, 5 h at 37° C.; read-out: % FU Brain
Recorded fraction unbound at 5 h, 5 micromolar for the following compounds
Lab note: record the figure alone, no unit after it.

Example entries and their recorded answers appear below.
Compound: Cc1ccc(Oc2ccc(-n3c(=O)[nH]c4cccnc43)cn2)cc1OC(F)(F)F [Example 4]
fraction unbound at 5 h, 5 micromolar: 0.003
//
Compound: Cc1ccc(Oc2ccc(-n3c(=O)[nH]c4cnccc43)cn2)cc1OC(F)(F)F [RE13, reference compound]
fraction unbound at 5 h, 5 micromolar: 0.005
//
Compound: Cc1ccc(Oc2ncc(-n3c(=O)[nH]c4cccnc43)cn2)cc1OC(F)(F)F [Example 32]
fraction unbound at 5 h, 5 micromolar: 0.006
//
Compound: O=c1[nH]c2cccnc2n1-c1cnc(Oc2cccc(OC(F)(F)F)c2)nc1 [Example 17]
fraction unbound at 5 h, 5 micromolar: 0.016

Now consider the entry below.
## Task Item under review: Cc1ccc(Oc2ccc(-n3c(=O)[nH]c4cncnc43)cn2)cc1OC(F)(F)F [RE12, reference compound] . Reported fraction unbound at 5 h, 5 micromolar?
## Result 0.006

* * *

Molecular target: human Kv3.1 channels (hKv3.1) (Homo sapiens, UniProt P48547)
Assay: Measurement of Kv3 channel modulation: Kv3.1 assay (IonWorks Quattro whole-cell electrophysiology)
Assay type: cell-based
Conditions: Table 2, Example compounds; normalised to maximum effect of reference compound (50 microM)
Recorded Kv3.1 max R % for the following compounds
Field format: number, assumed %, no unit text.

Example entries and their recorded answers appear below.
Record smiles: O=c1[nH]c2cccnc2n1-c1cnc(Oc2cccc3c2C2(CC2)CO3)nc1
Kv3.1 max R % [%]: 194
--
Record smiles: Cc1ccc(Oc2ncc(-n3c(=O)[nH]c4cccnc43)cn2)c2c1OCC2(C)C
Kv3.1 max R % [%]: 215
--
Record smiles: Cn1cc2[nH]c(=O)n(-c3cnc(Oc4cccc5c4C4(CC4)CO5)nc3)c2n1
Kv3.1 max R % [%]: 166

## Task Item under review: `Cn1cc2[nH]c(=O)n(-c3ccc(Oc4cccc5c4C4(CC4)CO5)nc3)c2n1` . Reported Kv3.1 max R %?
## Result 148

## Task Item under review: `Cc1ccc(Oc2cnc(-n3c(=O)[nH]c4cccnc43)cn2)c2c1OCC21CC1` . Reported Kv3.1 max R %?
## Result 205

## Task Item under review: `O=c1[nH]c2cccnc2n1-c1ccc(Oc2cccc3c2C2(CC2)CO3)cn1` . Reported Kv3.1 max R %?
## Result 221
